Tested on: HeLa Kyoto;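 also: synchronized HeLa Kyoto cells, proteins quantified by TMT10plex mass spectrometry, three biological replicates, mitosis taken 0.5 h after nocodazole release, G1/S directly after double thymidine block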
Experiment: thermal stability score vs G1/S (z-score of summed log2 fold changes over temperatures); higher = more thermally stable than in G1/S
Conditions: cell cycle stage: mitosis
Measured thermal stability score, listed per entry for reference.

{"columns": ["chain", "thermal stability score"],
 "data": [
  ["MQPASAKWYDRRDYVFIEFCVEDSKDVNVNFEKSKLTFSCLGGSDNFKHLNEIDLFHCIDPNDSKHKRTDRSILCCLRKGESGQSWPRLTKERAKLNWLSVDFNNWKDWEDDSDEDMSNFDRFSEMMNNMGGDEDVDLPEVDGADDDSQDSDDEKMPDLE [PTGES3]", 3.45]
]}

The record that follows has no thermal stability score shown yet.
[in] Value lookup for thermal stability score; key = MLQTLYDYFWWERLWLPVNLTWADLEDRDGRVYAKASDLYITLPLALLFLIVRYFFELYVATPLAALLNIKEKTRLRAPPNATLEHFYLTSGKQPKQVEVELLSRQSGLSGRQVERWFRRRRNQDRPSLLKKFREASWRFTFYLIAFIAGMAVIVDKPWFYDMKKVWEGYPIQSTIPSQYWYYMIELSFYWSLLFSIASDVKRKDFKEQIIHHVATIILISFSWFANYIRAGTLIMALHDSSDYLLESAKMFNYAGWKNTCNNIFIVFAIVFIITRLVILPFWILHCTLVYPLELYPAFFGYYFFNSMMGVLQLLHIFWAYLILRMAHKFITGKLVEDERSDREETESSEGEEAAAGGGAKSRPLANGHPILNNNHRKND [CERS2]
[out] -0.489

These data points were gathered from the supplement of paper PMC5998384.
